Reference for the values: patent US11813306B2

# tested_on: human PCSK9 (Homo sapiens, UniProt Q8NBP7)
# Sequence (Q8NBP7 153-692): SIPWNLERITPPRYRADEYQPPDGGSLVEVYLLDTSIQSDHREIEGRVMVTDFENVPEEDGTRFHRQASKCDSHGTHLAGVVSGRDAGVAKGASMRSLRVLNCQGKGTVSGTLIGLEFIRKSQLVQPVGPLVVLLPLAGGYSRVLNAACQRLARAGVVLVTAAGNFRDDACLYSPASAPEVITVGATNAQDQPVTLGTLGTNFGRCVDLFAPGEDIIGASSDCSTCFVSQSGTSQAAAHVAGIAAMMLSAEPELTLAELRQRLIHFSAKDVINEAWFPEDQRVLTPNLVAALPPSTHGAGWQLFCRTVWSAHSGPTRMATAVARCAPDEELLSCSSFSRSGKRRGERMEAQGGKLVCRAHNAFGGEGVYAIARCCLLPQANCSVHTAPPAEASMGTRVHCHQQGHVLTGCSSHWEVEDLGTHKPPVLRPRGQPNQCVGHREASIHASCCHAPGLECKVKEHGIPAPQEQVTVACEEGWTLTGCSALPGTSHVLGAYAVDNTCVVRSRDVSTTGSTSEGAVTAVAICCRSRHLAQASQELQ
# Sequence (Q8NBP7 31-152 partner limits assumed): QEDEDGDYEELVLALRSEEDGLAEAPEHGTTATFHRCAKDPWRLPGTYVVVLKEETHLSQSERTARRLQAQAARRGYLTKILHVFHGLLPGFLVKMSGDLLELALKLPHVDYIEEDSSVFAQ
# method_notes: PCSK9 ligand binding assay (TR-FRET): interference with binding of human PCSK9 to human LDLR
# measurement_setup: Human PCSK9 Alexa Fluor 647 / Human LDLR extracellular domain-Europium Kryptate
List of IC50 values.
Lab book: enter the figure in pM, no units written.

{"columns": ["compound", "tested_on", "uom", "IC50"],
 "data": [
  ["C[C@H]1C(=O)N[C@@H](CO)C(=O)N[C@@]2(Cc3ccc(Cl)cc3)CCCN(C2)C(=O)[C@H]([C@@H]2CCc3ccccc32)CC(=O)N1Cc1ccc(Cl)cc1Oc1ccc(-c2cnc(C3CN(C)C3)n2C)cc1 [Compound 69]", "human PCSK9 (Homo sapiens, UniProt Q8NBP7)", "pM", 781]
]}

Now turn to the next compound.
Problem: What measured IC50 goes with COC[C@@H]1NC(=O)[C@H](C)N(Cc2c(F)cc(Cl)cc2Oc2ccc(-c3cnc(CNC4CCC4)n3C)cc2)C(=O)C[C@@H](CC(F)(F)F)C(=O)N2CCC[C@@](Cc3ccc(Cl)cc3)(C2)NC1=O [Compound 45] ?
Solution: 816
